Entries and their protein stability index values follow.
B1: TOR1AIP2 (parent)
chain: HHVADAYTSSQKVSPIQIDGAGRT

Variants of: B1
runDescription: protein stability index of a GFP-peptide fusion (GPS, HEK-293T) (PSI 1-6); higher = more stable;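 further: lentivirally expressed fusions sorted by FACS into six bins by GFP to DsRed ratio, PSI derived from sequencing read proportions per bin multiplied by bin number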
experimentalConditions: c terminus: a fixed tail appended
// return just the number, without any unit appended

Below, each entry is followed by its recorded protein stability index result.
biosequence=HHVADAYTSSWKVSPIQIDGAGRT outcomemeasure="protein stability index" quantitativereadout=2.21
biosequence=HHVADAYQSSQKVSPIQIDGAGRT outcomemeasure="protein stability index" quantitativereadout=3.85
biosequence=HHVADAYTSSQKVSPIQIDGASRT outcomemeasure="protein stability index" quantitativereadout=3.36
biosequence=HHVADAYTSSQKYSPIQIDGAGRT outcomemeasure="protein stability index" quantitativereadout=3.43
biosequence=HHVADAYTQSQKVSPIQIDGAGRT outcomemeasure="protein stability index" quantitativereadout=3.15

Q: Any idea what its protein stability index is? The variant is HHVEDAYTSSQKVSPIQIDGAGRT
Ans: 4.43

Q: Also, HHEADAYTSSQKVSPIQIDGAGRT please.
Ans: 3.12

Q: And for HHVADAYTSSQTVSPIQIDGAGRT ?
Ans: 3.59

Q: Would you kindly repeat that for HHVADAYTSSQKVSPIMIDGAGRT ?
Ans: 2.99

Q: Param item: HHVADAYTSSQKVSMIQIDGAGRT
Ans: 3.25

Q: Try this variant next: HHVADAYTSSQKVMPIQIDGAGRT
Ans: 3.25
